// provenance: paper PMC11784839

- tested_target: tau (Homo sapiens, UniProt P10636)
- Sequence (P10636 623-695 limits assumed): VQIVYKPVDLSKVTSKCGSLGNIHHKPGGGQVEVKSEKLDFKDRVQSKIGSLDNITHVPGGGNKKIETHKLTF
- method_notes: MCE Phenols Library screening, tau biosensor cell seeding assay (AvZ)
- Assay type: cell-based
- assay_conditions: puncta, replicate 1
Listed below: raw data 1 values for each entry.
outcome_measure: raw data 1

COc1ccc(CCO[C@@H]2O[C@H](CO[C@@H]3O[C@H](CO)[C@H](O)[C@H](O)[C@H]3O)[C@@H](OC(=O)/C=C/c3ccc(O)c(OC)c3)[C@H](O[C@@H]3O[C@@H](C)[C@H](O)[C@@H](O)[C@H]3O)[C@H]2O)cc1O [Jionoside B1] | 28546.2
COc1c(O)cc2occ(-c3ccc(O)cc3)c(=O)c2c1O | 25501.8
COc1ccc(C=O)cc1 | 24311
C[C@H]1CCCC(=O)CCCCCc2cc(O)cc(O)c2C(=O)O1 | 27422.4
